Notes on Ki obtained with Somatostatin receptor type 2 (Homo sapiens).
Sequence (P30874 whole entry): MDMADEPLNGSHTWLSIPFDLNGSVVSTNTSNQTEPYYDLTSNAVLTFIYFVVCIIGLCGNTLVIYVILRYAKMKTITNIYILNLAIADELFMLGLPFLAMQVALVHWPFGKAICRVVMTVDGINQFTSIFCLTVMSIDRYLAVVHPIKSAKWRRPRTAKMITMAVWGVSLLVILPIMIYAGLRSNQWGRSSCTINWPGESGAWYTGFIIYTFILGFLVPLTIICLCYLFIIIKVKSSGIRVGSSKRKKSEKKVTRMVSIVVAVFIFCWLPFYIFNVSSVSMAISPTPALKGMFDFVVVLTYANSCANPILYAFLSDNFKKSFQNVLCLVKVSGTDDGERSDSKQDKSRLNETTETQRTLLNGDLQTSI
Bridge positions count the residues as written; N and C are the ends. Square brackets hold non-standard residues; d marks the D form. Peptide text beside a SMILES is read from it. Phe(4-Cl) = N[C@@H](Cc1ccc(Cl)cc1)C(=O)O; Phe(4-F) = N[C@@H](Cc1ccc(F)cc1)C(=O)O; 2Nal = N[C@@H](Cc1ccc2ccccc2c1)C(=O)O; 3Pal = N[C@@H](Cc1cccnc1)C(=O)O; Tle = CC(C)(C)[C@H](N)C(=O)O
Unit µM implied. Number only.

Request: Tell me reported Ki for CC(C)(C)[C@@H]1NC(=O)[C@H](CCCCN)NC(=O)[C@@H](Cc2c[nH]c3ccccc23)NC(=O)[C@H](Cc2cccnc2)NC(=O)[C@H](NC(=O)[C@@H](N)Cc2ccc(Cl)cc2)CSSC[C@@H](C(=O)N[C@@H](Cc2ccc3ccccc3c2)C(N)=O)NC1=O (H-[Phe(4-Cl)][dC][3Pal][dW]K[Tle]C[2Nal]-NH2; disulfide 2-7) , tested with Somatostatin receptor type 2 (Homo sapiens).
Response: 0.012

Request: Let us now turn to `CC(C)[C@@H]1NC(=O)[C@H](CCCCN)NC(=O)[C@@H](Cc2c[nH]c3ccccc23)NC(=O)[C@H](Cc2cccnc2)NC(=O)[C@H](NC(=O)[C@@H](N)Cc2ccc(F)cc2)CSSC[C@@H](C(=O)N[C@@H](Cc2ccc(F)cc2)C(N)=O)NC1=O`
Response: 0.02

Request: Let us now turn to CC(C)(C)[C@@H]1NC(=O)[C@H](CCCCN)NC(=O)[C@@H](Cc2c[nH]c3ccccc23)NC(=O)[C@H](Cc2cccnc2)NC(=O)[C@H](NC(=O)[C@@H](N)Cc2ccc(F)cc2)CSSC[C@@H](C(=O)N[C@@H](Cc2ccc3ccccc3c2)C(N)=O)NC1=O (H-[Phe(4-F)][dC][3Pal][dW]K[Tle]C[2Nal]-NH2; disulfide 2-7)
Response: 0.026

Request: Let us now turn to CC(C)[C@@H]1NC(=O)[C@H](CCCCN)NC(=O)[C@@H](Cc2c[nH]c3ccccc23)NC(=O)[C@H](Cc2ccc(O)c(I)c2)NC(=O)C(NC(=O)[C@@H](N)Cc2ccc3ccccc3c2)CSSCC(C(=O)N[C@@H](Cc2ccc3ccccc3c2)C(N)=O)NC1=O (stereo in doubt)
Response: 0.194

Request: Let us now turn to `CC(C)[C@@H]1NC(=O)[C@H](CCCCN)NC(=O)[C@@H](Cc2c[nH]c3ccccc23)NC(=O)[C@H](Cc2cccnc2)NC(=O)[C@H](NC(=O)[C@@H](N)Cc2ccc(Br)cc2)CSSC[C@@H](C(=O)N[C@@H](Cc2ccc(Br)cc2)C(N)=O)NC1=O`
Response: 0.016

Request: Let us now turn to CC(C)[C@H]1NC(=O)[C@H](CCCCN)NC(=O)[C@@H](Cc2c[nH]c3ccccc23)NC(=O)[C@H](Cc2c[nH]cn2)NC(=O)C(NC(=O)[C@@H](N)Cc2cccc(F)c2)CSSCC(C(=O)N[C@@H](Cc2cccc(F)c2)C(N)=O)NC1=O (stereo in doubt)
Response: 0.103

Request: Let us now turn to C[C@@H](O)[C@@H]1NC(=O)[C@H](CCCCN)NC(=O)[C@@H](Cc2c[nH]c3ccccc23)NC(=O)[C@H](Cc2ccccn2)NC(=O)C(NC(=O)[C@@H](N)Cc2ccc(Cl)cc2)CSSCC(C(=O)N[C@@H](Cc2ccc3ccccc3c2)C(N)=O)NC1=O (stereo in doubt)
Response: 0.233

Request: Let us now turn to `CC(C)[C@@H]1NC(=O)[C@H](CCCCN)NC(=O)[C@@H](Cc2c[nH]c3ccccc23)NC(=O)[C@H](Cc2cccnc2)NC(=O)[C@H](NC(=O)[C@@H](N)Cc2ccc3ccccc3c2)CSSC[C@@H](C(=O)N[C@@H](Cc2ccc3ccccc3c2)C(N)=O)NC1=O`
Response: 0.081
